Protocol Details: Quantitative High-Throughput drug screen in 47 multiple myeloma cell lines against the NCATS MIPE library collection: JIM3_ECACC cell viability assay (AID 1918963; also: nearly all actives have a fitted effect of over 35% in size)
Cond: JIM3 myeloma viability, CellTiter-Glo ATP, 48 h; series mostly up to 45.8 µM
Inconclusive results are not listed. The source made the active and inactive calls. Calls follow the shape of the dose curve; as a rule, active = well fitted cell-killing curve with a large enough effect; inconclusive = small, poorly fitted or top-dose-only effect; inactive = no such curve, though single readings can be large or run the other way.
Outcomes: active, inactive

Compound	Cat
O=c1[nH]cnc2c1ncn2[C@H]1CC[C@@H](CO)O1	inactive
O=C(Nc1c(Cl)cncc1Cl)c1ccc(OC(F)F)c(OCC2CC2)c1	inactive
NC(=O)c1cccc(-c2cc(Nc3ccc(OC(F)(F)F)cc3)ncn2)c1	active
CC1(C)CCC(CN2CCN(c3ccc(C(=O)NS(=O)(=O)c4ccc(NCC5CCOCC5)c([N+](=O)[O-])c4)c(Oc4cnc5[nH]ccc5c4)c3)CC2)=C(c2ccc(Cl)cc2)C1	inactive
Cc1cccc(Nc2nc(-c3ccncc3)cs2)c1	active
CCC(CC)[C@H](NC(C)=O)[C@@H]1[C@H](O)[C@@H](C(=O)O)C[C@@H]1N=C(N)N	inactive
O=C(O)c1c(Cl)c(Cl)c(Cl)c(Cl)c1-c1c2cc(I)c(=O)c(I)c-2oc2c(I)c(O)c(I)cc12	active
COc1cc2ncnc(Nc3ccc(F)c(Cl)c3)c2cc1OCCCN1CCOCC1	active
NC1CCC(Nc2nc(Nc3ccc(C(=O)N4CCCCC4)cc3)c3ncn(-c4cccc(F)c4)c3n2)CC1 (stereo not given)	inactive
CN(C)CCC=C1c2ccccc2COc2ccc(CC(=O)O)cc21	inactive

---

Protocol Details: qHTS profiling of the MIPE4 collection as inhibitors of Plasmodium falciparum (3D7) proliferation (AID 743344);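 also: scaled between DMSO vehicle wells and 0.29 µM artemisinin as full inhibition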
Cond: P. falciparum 3D7 in erythrocytes, SYBR Green DNA fluorescence, 72 h; at 28.5 µM (top of the series) unless noted

Given Smiles	parasite growth, % of DMSO control / %
CN(C)Cc1cccc(N=C(c2ccccc2)c2c(O)[nH]c3cc(C(=O)N(C)C)ccc23)c1	16.4
c1cc(-c2sc(-c3ccncc3)c(-c3ccncc3)c2-c2ccncc2)ccn1	8.84
CO[C@H]1C[C@@H]2CC[C@@H](C)[C@@](O)(O2)C(=O)C(=O)N2CCCC[C@@H]2C(=O)O[C@H]([C@H](C)C[C@@H]2CC[C@H](OCCO)[C@H](OC)C2)CC(=O)[C@H](C)C=C(C)[C@@H](O)[C@@H](OC)C(=O)[C@H](C)C[C@H](C)C=CC=CC=C1C	4.95
CC(C)(C)OC(=O)N[C@H]1CCCCCC=C[C@@H]2C[C@@]2(C(=O)NS(=O)(=O)C2CC2)NC(=O)[C@@H]2C[C@@H](OC(=O)N3Cc4cccc(F)c4C3)CN2C1=O	11.7

---

Protocol Details: Cellular Toxicity (caspase-3) HepG2 (AID 654);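 as to caspase-3 activation: cells exposed to compound for 16 hours before reading; 0% = DMSO alone and 100% = caspase signal from 100 µM tamoxifen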
Cond: HepG2 caspase-3 activation, luminescence; series mostly up to 92.2 µM
Calls of active or inactive are those of the source. The call rests on the fitted dose curve; in most records, active means well fitted activation curve with a large enough effect; inconclusive means small, poorly fitted or top-dose-only effect; inactive means flat fitted curve, though single readings scatter.
Outcomes: class 1 = active, class 0 = inactive

Molecule	Cat
O=c1[nH]cnc2c1ncn2[C@H]1CC[C@@H](CO)O1	class 0
CCCNC(=O)NS(=O)(=O)c1ccc(Cl)cc1	class 0
O=C(O)c1cc(O)c2c(c1)C(=O)c1cccc(O)c1C2=O	class 0
O=c1c(-c2ccc(O)cc2)coc2cc(O)ccc12	class 0
CCCCC1C(=O)N(c2ccccc2)N(c2ccccc2)C1=O	class 0
CC1=C(/C=C/C(C)=C/C=C/C(C)=C/C(=O)Nc2ccc(O)cc2)C(C)(C)CCC1	class 1
CC(=O)c1ccc(S(=O)(=O)NC(=O)NC2CCCCC2)cc1	class 0
CN(C)CCC(c1ccccc1)c1ccccn1 (stereo unspecified)	class 0
CC/C(=C(\c1ccccc1)c1ccc(OCCN(C)C)cc1)c1ccccc1	class 1
CC(=O)O[C@]1(C(C)=O)CC[C@H]2[C@@H]3C=C(Cl)C4=CC(=O)[C@@H]5C[C@@H]5[C@]4(C)[C@H]3CC[C@@]21C	class 0
O=C1NC(=O)C(c2ccccc2)(c2ccccc2)N1	class 0
